System: A549/ATCC NSCLC
test-name: NCI-60 one-dose screen, 48 h (100 = growth as untreated, 0 = no growth, -100 = all killed)
recorded-conditions: 10 µM unless noted
About 83,000 compounds went through this panel and 20% of them were active in at least one assay; those are over-represented in the sample as a whole. Activity calls are given as the source filed them. How the source made its calls: active means growth percent below 10; inactive means the rest.
assay-metric: growth

Cc1ccc(C)c(NC(=O)c2sc3c(=O)[nH]cnc3c2C)c1 ... 74.6% (inactive)
CC(C)(C)c1nn(-c2ccccc2)c2c1C(=O)CSC(c1ccc3c(c1)OCO3)N2 (configuration not stated) ... 112% (inactive)
C#CCNc1nc(NCCNC(=O)CCl)nc(N(C)CCCCc2ccccc2)n1 ... 119% (inactive)
O=[N+]([O-])c1ccc(N/N=C\c2ccc(O)cc2O)nc1 ... 25.6% (inactive)
ClCc1c(Cl)c(Cl)c(Cl)c(CCl)c1Cl ... 94.9% (inactive)
Cc1cc(N)cc(C)c1-c1c(Br)cc(N)cc1Br ... 25.2% (inactive)

Prompt line: Can you look up the measured growth of O=C1N(Cc2ccccc2Cl)c2ccccc2C12NN=C(c1ccccc1)S2 (configuration not stated) for me?
Response line: 53.4% (inactive)
